# targetOrTestSystem: hNav1.7 (Homo sapiens (Human))
# protocolSummary: Tritiated sulfonamide competitive binding to membranes from cells expressing hNav1.7 and the β1 subunit
# measurementParameters: read-out: Ligand Binding Assay; 100 pM [3H]compound, membranes with hNav1.7 and β1 subunit, 18 h, room temperature
pIC50: −log10 of the molar value.
Classify as follows. Reported pIC50 greater than or equal to 8: YES. Reported pIC50 below: NO.

As a guide, the following entries are already answered.
CCS(=O)(=O)NC(=O)c1cc(C2CC2)c(OCC2CCN(Cc3cc(Cl)cc(C(F)(F)F)c3)CC2)cc1F :: YES
CS(=O)(=O)NC(=O)c1cc(C2CC2)c(CN2CCO[C@H](Cc3cc(Cl)cc(Cl)c3)C2)cc1F :: YES
CS(=O)(=O)NC(=O)c1cc(C2CC2)c(OCC2CCN(Cc3cc(C(F)(F)F)ccc3Cl)CC2)cc1F :: YES
C[C@H](c1ccc(F)cc1)N1CCC[C@@H](Oc2cc(F)c(C(=O)NS(C)(=O)=O)cc2C2CC2)C1 :: NO
CS(=O)(=O)NC(=O)c1cc(C2CC2)c(OCC2CN([C@H](c3ccccc3)c3ccncc3)C2)cc1F :: NO
CS(=O)(=O)NC(=O)c1cc(C2CC2)c(OCC2CCN(Cc3cc(Cl)cc(Cl)c3C#N)CC2)cc1F :: NO
CS(=O)(=O)NC(=O)c1cc(C2CC2)c(OCC2CN([C@H](c3ccccc3)c3ccccc3F)C2)cc1F :: NO
CS(=O)(=O)NC(=O)c1cc(C2CC2)c(OCC2CCN(Cc3ccccc3F)CC2)cc1F :: NO
CS(=O)(=O)NC(=O)c1cc(C2CC2)c(OCC2CN([C@@H](c3ccccc3)c3ccccc3F)C2)cc1F :: NO
C[C@H](c1cc(F)cc(Cl)c1)N1CCC(COc2cc(F)c(C(=O)NS(C)(=O)=O)cc2C2CC2)CC1 (single isomer, unassigned) :: YES

Pending compound:
Exercise: Could you verify whether the entry C[C@@H](c1cc(Cl)cc(Cl)c1)N1CC(C)(COc2cc(F)c(C(=O)NS(C)(=O)=O)cc2C2CC2)C1 (single isomer, unassigned) shows pIC50 of no less than 8?
Key: YES

---

# targetOrTestSystem: hNav1.7 (Homo sapiens (Human))
# protocolSummary: Tritiated sulfonamide competitive binding to membranes from cells expressing hNav1.7 and the β1 subunit
# measurementParameters: read-out: Ligand Binding Assay; 100 pM [3H]compound, membranes with hNav1.7 and β1 subunit, 18 h, room temperature
Structures can show the parent of a compound that is named as a salt.
In this section, each of the compounds is paired with its reported IC50.
Write it as a number; the unit nM goes unstated.

Examples with answers:
O=C(NS(=O)(=O)C1CC1)c1cc(C2CC2)c(CN2[C@@H]3CC[C@H]2CC(Oc2cc(C(F)(F)F)cc(Cl)c2F)C3)cc1F (stereo partly shown) [Example 470, trifluoroacetic acid salt] :: 3.8
CS(=O)(=O)NC(=O)c1cc(C2CC2)c(OCC2CN(Cc3ccc(Cl)c(F)c3)C2)cc1F [Example 133] :: 118
O=C(NS(=O)(=O)C1CC1)c1cc(C2CC2)c(OCC2CCN(C(=O)c3ccccc3)CC2)cc1F [Example 198] :: 550
CCS(=O)(=O)NC(=O)c1cc(C2CC2)c(OCC2(C)CN(c3ncc(Cl)cc3F)C2)cc1F [Example 484] :: 9.2
O=C(NS(=O)(=O)C1CC1)c1cc(C2CC2)c(OC[C@@H]2C[C@H]3CC[C@@H](C2)N3Cc2cc(C(F)(F)F)ccc2Cl)cc1F [Example 397, trifluoroacetic acid salt] :: 5.7

Exercise: What does the record list as IC50 for O=C(NS(=O)(=O)C1CC1)c1cc(C2CC2)c(OCC2CCN(Cc3ncccc3C(F)(F)F)CC2)cc1F [Example 364, trifluoroacetic acid salt] ?
Key: 80.6

Exercise: Quick one: IC50 of COC[C@@H](c1ccc(F)c(Cl)c1)N1CCC(COc2cc(F)c(C(=O)NS(C)(=O)=O)cc2C2CC2)CC1 (single isomer, unassigned) [Example 181] ?
Key: 11

Exercise: What does the data say about its IC50? Entry: CS(=O)(=O)NC(=O)c1cc(C2CC2)c(OC[C@H]2CCCN(Cc3cc(Cl)cc(Cl)c3)C2)cc1F [Example 336]
Key: 4.9

Exercise: IC50 for CS(=O)(=O)NC(=O)c1cc(C2CC2)c(OCC2CN([C@@H](c3ccccc3)c3cccnc3)C2)cc1F [Example 82] ?
Key: 408

---

Below is a list of entries, each paired with its recorded log10(IC50) value.
# targetOrTestSystem: hNav1.7 (Homo sapiens (Human), UniProt Q15858)
# Sequence (Q15858 other isoform, or with tags, fused parts or gaps): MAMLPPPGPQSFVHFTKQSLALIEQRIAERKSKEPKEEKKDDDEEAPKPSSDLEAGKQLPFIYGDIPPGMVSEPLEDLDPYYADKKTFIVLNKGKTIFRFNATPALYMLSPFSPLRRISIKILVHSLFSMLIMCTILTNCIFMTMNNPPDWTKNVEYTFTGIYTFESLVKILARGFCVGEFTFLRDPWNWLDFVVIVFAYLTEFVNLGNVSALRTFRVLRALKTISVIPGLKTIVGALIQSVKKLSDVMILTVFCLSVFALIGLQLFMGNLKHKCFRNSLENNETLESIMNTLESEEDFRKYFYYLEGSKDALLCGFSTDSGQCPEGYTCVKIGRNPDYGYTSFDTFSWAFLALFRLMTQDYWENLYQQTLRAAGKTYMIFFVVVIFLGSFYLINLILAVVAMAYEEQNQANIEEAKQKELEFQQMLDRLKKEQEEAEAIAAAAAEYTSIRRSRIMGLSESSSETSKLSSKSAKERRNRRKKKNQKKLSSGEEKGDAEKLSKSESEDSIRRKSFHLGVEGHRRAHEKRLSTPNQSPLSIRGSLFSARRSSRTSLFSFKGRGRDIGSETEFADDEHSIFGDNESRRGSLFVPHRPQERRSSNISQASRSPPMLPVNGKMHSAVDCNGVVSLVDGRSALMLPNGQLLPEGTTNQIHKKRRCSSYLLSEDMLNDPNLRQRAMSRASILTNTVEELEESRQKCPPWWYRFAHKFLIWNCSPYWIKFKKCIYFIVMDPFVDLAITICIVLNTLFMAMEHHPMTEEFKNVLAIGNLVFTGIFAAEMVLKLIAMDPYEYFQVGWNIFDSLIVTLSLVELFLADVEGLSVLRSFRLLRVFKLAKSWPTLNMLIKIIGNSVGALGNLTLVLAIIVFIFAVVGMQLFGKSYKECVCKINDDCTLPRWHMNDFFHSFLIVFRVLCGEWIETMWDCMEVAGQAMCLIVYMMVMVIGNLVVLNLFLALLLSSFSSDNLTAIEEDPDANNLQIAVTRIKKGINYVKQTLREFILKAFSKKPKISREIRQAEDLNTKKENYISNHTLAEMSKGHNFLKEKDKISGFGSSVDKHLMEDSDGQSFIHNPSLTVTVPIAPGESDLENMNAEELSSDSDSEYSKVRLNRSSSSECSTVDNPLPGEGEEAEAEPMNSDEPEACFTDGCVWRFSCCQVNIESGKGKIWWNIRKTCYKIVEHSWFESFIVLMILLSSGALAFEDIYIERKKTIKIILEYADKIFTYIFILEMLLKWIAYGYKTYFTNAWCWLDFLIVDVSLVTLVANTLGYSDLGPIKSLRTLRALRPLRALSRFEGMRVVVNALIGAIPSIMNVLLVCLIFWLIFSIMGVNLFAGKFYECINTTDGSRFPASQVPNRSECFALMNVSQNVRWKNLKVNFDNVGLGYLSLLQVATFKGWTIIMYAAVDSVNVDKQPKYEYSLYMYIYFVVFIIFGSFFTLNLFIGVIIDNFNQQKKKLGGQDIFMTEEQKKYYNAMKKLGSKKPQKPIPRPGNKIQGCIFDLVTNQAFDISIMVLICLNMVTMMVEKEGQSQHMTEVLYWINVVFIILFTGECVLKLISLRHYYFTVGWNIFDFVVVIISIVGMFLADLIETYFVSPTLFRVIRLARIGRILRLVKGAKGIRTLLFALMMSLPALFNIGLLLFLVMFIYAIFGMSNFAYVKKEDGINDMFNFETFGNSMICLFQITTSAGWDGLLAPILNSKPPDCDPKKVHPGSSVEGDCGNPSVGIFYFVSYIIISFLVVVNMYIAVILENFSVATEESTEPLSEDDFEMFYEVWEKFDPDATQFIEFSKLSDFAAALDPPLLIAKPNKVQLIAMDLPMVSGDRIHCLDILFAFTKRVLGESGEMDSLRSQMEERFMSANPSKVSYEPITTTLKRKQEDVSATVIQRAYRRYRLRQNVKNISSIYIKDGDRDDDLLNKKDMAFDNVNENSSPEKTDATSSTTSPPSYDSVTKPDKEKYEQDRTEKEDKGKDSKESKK
# Sequence (Q07699 19-218 partner): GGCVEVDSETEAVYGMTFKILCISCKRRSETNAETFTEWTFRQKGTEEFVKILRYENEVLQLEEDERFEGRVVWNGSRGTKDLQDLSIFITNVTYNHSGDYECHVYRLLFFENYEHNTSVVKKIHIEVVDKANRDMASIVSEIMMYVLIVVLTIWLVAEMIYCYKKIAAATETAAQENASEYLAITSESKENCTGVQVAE
# protocolSummary: Tritiated sulfonamide competitive binding to membranes from cells expressing hNav1.7 and the β1 subunit;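 also: Filter-bound radioactivity counted by liquid scintillation, nonspecific binding defined with excess unlabelled ligand, IC50 fitted to percent inhibition of specific binding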
# measurementParameters: read-out: Ligand Binding Assay; 100 pM [3H]compound, membranes with hNav1.7 and β1 subunit, 18 h, room temperature
Note the log scale: values are log10 of IC50 expressed in nM.

Past entries and their recorded results:
CS(=O)(=O)NC(=O)c1cc(C2CC2)c(OCC2CN([C@H](c3ccccc3)c3ccc(F)cc3)C2)cc1F [Example 145] :: 0.79
COc1ccc(CN2CCC(COc3cc(F)c(C(=O)NS(C)(=O)=O)cc3C3CC3)CC2)cc1F [Example 94] :: 2.18
CS(=O)(=O)NC(=O)c1cc(C2CC2)c(OCC2CCN(Cc3ccc(C(F)(F)F)c(Cl)c3)CC2)cc1F [Example 220] :: 1.23
CC1(COc2cc(F)c(C(=O)NS(C)(=O)=O)cc2C2CC2)CCN(Cc2cc(C(F)(F)F)cc(Cl)c2F)CC1 [Example 141] :: 0.59
CS(=O)(=O)NC(=O)c1cc(C2CC2)c(O[C@@H]2CCCN([C@@H](c3ccc(F)cc3Cl)C(F)(F)F)C2)cc1F (single isomer, unassigned) [Example 298] :: 0.66

Exercise: Which log10(IC50) reading was recorded for the compound C[C@H](c1cc(Cl)cc(Cl)c1)N1CC(COc2cc(F)c(C(=O)NS(C)(=O)=O)cc2C2CC2)C1 [Example 121] ?
Key: 1.48

Exercise: So what's the measured log10(IC50) for this one? Cc1cc(C(=O)NS(C)(=O)=O)c(F)cc1OCC1CCN([C@@H](C)c2cc(Cl)cc(Cl)c2)CC1 [Example 360]
Key: 1.11

---

# targetOrTestSystem: NaV1.5 (Homo sapiens (Human))
# Sequence (Q14524 whole entry): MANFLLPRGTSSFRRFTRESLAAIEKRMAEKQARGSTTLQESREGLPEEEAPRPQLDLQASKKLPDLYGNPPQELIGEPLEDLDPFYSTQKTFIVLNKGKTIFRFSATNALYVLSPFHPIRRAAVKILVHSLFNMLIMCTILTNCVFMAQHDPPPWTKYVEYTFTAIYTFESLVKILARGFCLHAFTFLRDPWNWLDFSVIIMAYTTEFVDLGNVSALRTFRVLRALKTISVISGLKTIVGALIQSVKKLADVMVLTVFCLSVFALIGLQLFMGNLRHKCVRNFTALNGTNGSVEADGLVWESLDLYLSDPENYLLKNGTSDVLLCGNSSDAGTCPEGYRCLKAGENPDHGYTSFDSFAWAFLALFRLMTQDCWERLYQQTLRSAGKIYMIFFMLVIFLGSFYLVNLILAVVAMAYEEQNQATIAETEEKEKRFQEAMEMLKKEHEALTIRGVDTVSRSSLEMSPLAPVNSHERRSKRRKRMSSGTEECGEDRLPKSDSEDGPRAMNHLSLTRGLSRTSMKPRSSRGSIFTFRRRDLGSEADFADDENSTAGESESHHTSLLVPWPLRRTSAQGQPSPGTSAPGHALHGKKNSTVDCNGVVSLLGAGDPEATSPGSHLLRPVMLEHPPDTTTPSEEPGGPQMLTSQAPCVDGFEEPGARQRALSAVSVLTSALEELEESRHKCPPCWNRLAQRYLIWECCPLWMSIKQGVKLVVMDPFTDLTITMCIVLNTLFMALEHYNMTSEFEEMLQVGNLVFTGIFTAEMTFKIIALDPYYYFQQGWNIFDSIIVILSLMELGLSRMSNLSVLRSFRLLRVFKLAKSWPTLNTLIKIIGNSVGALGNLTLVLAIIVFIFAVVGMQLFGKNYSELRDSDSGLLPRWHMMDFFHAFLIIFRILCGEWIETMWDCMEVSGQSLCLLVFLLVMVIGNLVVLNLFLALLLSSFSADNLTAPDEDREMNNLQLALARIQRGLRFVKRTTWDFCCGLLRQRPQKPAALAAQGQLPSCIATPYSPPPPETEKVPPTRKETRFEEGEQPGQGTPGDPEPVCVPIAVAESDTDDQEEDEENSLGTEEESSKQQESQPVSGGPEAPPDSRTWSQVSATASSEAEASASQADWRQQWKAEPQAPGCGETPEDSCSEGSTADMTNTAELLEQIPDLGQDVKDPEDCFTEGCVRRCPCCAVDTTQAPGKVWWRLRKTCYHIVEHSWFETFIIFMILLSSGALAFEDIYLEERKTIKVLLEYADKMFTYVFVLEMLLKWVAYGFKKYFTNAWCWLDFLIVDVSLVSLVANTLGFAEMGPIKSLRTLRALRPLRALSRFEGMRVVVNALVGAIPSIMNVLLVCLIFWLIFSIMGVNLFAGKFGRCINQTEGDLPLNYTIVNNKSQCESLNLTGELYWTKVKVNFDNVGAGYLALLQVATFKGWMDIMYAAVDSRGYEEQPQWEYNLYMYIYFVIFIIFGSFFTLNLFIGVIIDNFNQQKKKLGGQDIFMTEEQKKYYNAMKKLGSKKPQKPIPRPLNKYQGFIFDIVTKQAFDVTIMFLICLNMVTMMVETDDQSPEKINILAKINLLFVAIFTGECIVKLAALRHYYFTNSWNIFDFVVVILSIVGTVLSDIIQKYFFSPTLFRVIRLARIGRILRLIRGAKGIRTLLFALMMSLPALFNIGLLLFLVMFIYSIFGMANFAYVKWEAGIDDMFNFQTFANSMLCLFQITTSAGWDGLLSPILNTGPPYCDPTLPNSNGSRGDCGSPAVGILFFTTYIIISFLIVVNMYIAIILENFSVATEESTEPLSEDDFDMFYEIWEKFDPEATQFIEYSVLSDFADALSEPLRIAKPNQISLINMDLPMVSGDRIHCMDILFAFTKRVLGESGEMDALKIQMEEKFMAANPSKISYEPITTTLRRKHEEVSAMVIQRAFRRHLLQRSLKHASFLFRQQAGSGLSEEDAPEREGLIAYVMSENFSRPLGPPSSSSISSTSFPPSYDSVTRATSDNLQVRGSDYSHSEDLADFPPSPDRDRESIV
# protocolSummary: Patch voltage clamp electrophysiological assay (EP), NaV1.5
# measurementParameters: read-out: NaV1.5 EP; HEK-293 cells stably expressing human NaV1.5 with β1 subunit, whole-cell patch clamp, holding −60 mV
Counter-ions that a name gives are not always drawn.
// values below are reported log10(IC50)
In our notation, the value equals log10 of IC50 in nM.

Answered cases to consult:
CC(C)(c1cc(Cl)cc(Cl)c1)N1CCC[C@@H](Oc2cc(F)c(C(=O)NS(=O)(=O)C3CC3)cc2C2CC2)C1 [Example 495, trifluoroacetic acid salt] :: 1.19
CS(=O)(=O)NC(=O)c1cc(C2CC2)c(OCC2CCN(Cc3cc(Cl)cc(Cl)c3C#N)CC2)cc1F :: 2.79
CCS(=O)(=O)NC(=O)c1cc(C2CC2)c(OCC2CCN([C@H](COC)c3cc(Cl)cc(Cl)c3)CC2)cc1F (single isomer, unassigned) :: 2.45

--- query ---
Exercise: Entry O=C(NS(=O)(=O)C1CC1)c1cc(C2CC2)c(CN2CCO[C@H](Cc3cc(Cl)cc(Cl)c3)C2)cc1F , system NaV1.5 (Homo sapiens (Human)): what log10(IC50) was measured?
Key: 2.04

---

Consider the following compounds and their measured pIC50 readings.
# targetOrTestSystem: hNav1.7 (Homo sapiens (Human))
# protocolSummary: Tritiated sulfonamide competitive binding to membranes from cells expressing hNav1.7 and the β1 subunit
Counter-ions that a name gives are not always drawn.
Scale: negative log10 of molar concentration, which is what pIC50 denotes.

Past entries and their recorded results:
O=C(NS(=O)(=O)C1CC1)c1cc(C2CC2)c(CN2CCC(Oc3cc(C(F)(F)F)cc(Cl)c3F)CC2)cc1F [Example 537, trifluoroacetic acid salt] :: 8.24
O=C(NS(=O)(=O)C1CC1)c1cc(C2CC2)c(O[C@@H]2CCCN(Cc3ccc(Cl)cc3Cl)C2)cc1F [Example 31] :: 8.59
O=C(NS(=O)(=O)N1CCC1)c1cc(C2CC2)c(O[C@@H]2CCCN(Cc3ccc(F)cc3C(F)(F)F)C2)cc1F [Example 36] :: 8.44

Exercise: Can you look up the measured pIC50 of O=C(NS(=O)(=O)C1CC1)c1cc(C2CC2)c(O[C@@H]2CCCN(Cc3ccc(Cl)c(Cl)c3)C2)cc1F [Example 18] for me?
Key: 8.59

Exercise: Using the record for O=C(NS(=O)(=O)C1CC1)c1cc(C2CC2)c(CN2CCC(Oc3ccc(Cl)c(Cl)c3)CC2)cc1F [Example 510, trifluoroacetic acid salt] , report its pIC50.
Key: 8.04

Exercise: Which value of pIC50 has been reported for O=C(NS(=O)(=O)N1CCC1)c1cc(C2CC2)c(O[C@@H]2CCCN(Cc3ccc(F)cc3Cl)C2)cc1F [Example 6] in the records?
Key: 8.52
